Where do these numbers come from? They come from patent US20240270821A1.

SYSTEM_NAME: human GLP-1R (SNAP-GLP-1R expressed in HEK293 cells) (human) (UniProt P43220)
Sequence (P43220 24-463): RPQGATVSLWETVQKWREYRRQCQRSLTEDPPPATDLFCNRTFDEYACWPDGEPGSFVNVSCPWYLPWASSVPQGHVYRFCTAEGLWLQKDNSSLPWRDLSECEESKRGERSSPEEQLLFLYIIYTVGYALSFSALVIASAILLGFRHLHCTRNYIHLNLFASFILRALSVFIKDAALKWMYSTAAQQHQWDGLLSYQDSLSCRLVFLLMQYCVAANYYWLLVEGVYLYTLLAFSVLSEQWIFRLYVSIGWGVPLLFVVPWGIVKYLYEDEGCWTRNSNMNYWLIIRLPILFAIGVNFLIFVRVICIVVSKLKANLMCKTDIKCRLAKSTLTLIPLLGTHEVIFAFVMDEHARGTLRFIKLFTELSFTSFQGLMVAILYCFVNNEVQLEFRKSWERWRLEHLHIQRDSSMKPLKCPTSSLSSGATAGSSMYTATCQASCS
TEST_NAME: cell-based or functional assay
Consider the following binders; for each one, report its GLP1R Internalization EC50.

Prompt line: Tell me the measured GLP1R Internalization EC50 of YXQGTFTSDFSXXLDKKAQXAFIEWLLEGGPSSGAPPPSGE (synthetic construct; SITE 2: note = 2-Aminoisobutyric Acid; SITE 12: note = L-ornithine; SITE 13: note = alpha-methyl-leucine; SITE 17: note = Lysine is chemically modified through conjugation of the epsilon-amino group of the Lysine side chain with (2-[2-(2-Amino-ethoxy)-ethoxy]-acetyl)-(gamma-Glu)) [Example 119] , please.
Response line: 73.5 nM

Prompt line: Any idea what its GLP1R Internalization EC50 is? The binder is YXQGTFTSDYSKXLDKKAQXAFIEYLLEGGESSGAPPPSGS (synthetic construct; SITE 2: note = 2-Aminoisobutyric Acid; SITE 13: note = alpha-methyl-leucine; SITE 17: note = Lysine is chemically modified through conjugation of the epsilon-amino group of the Lysine side chain with (2-[2-(2-Amino-ethoxy)-ethoxy]-acetyl)-(gamma-Glu)-CO-(CH2) 16-CO2H; SITE 20: n) [Example 358]
Response line: 21.5 nM

Prompt line: Would you mind telling me what GLP1R Internalization EC50 value was observed for YXQGTFTSDXSXXLDKKAQXAFIEYLIEXGESSGAPPPSGE (synthetic construct; SITE 2: note = 2-Aminoisobutyric Acid; SITE 10: note = 3-(4-Pyridyl)-L-alanine; SITE 12: note = L-ornithine; SITE 13: note = alpha-methyl-leucine; SITE 17: note = Lysine is chemically modified through conjugation of the epsilon-amino group of the Lysine side chain with (2-[2-(2-) [Example 222] ?
Response line: 34.6 nM
